Source: PubChem BioAssay

# METHOD DESCRIPTION: reduction of polyQ htt aggregates in cells – imaging, exon1htt(103Q)mCFP cells, high-content imaging, primary screen (AID 483);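 further: compound exposure lasted 3 days before fixation; percent of the per-plate median nuclei count of sample wells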
# TEST CONTEXT: exon1htt(103Q)mCFP cell line, aggregate imaging, at 2 µM; measured here: cell count, toxicity
ASSAY METRIC: nuclei count (%)
Quick reminder: number only, in %, skip the unit.

query: Item `O=C(NCc1cccnc1)c1ccc2c(c1)OCO2` : provide nuclei count
result: 103

query: Item Cc1cc(N2CCOCC2)nc2ccc(NC(=O)C3CCC(C)CC3)cc12 (configuration not stated) : provide nuclei count
result: 127

query: Item `Cc1cc(C(F)(F)F)nn1Cc1ccc(C(=O)NCc2ccco2)o1` : provide nuclei count
result: 106

query: Item `CCOc1ccc2ccccc2c1C(=O)N1CCN(c2ccccc2)CC1` : provide nuclei count
result: 15.6

query: Item `Cn1cnc(S(=O)(=O)Nc2ccc(C(F)(F)F)cc2)c1` : provide nuclei count
result: 117

query: Item `Cc1cc2ncn(C(=O)c3c(-c4ccccc4)noc3C)c2cc1C` : provide nuclei count
result: 85.7

query: Item `CC(C)Oc1cc2oc(=O)c3c(c2cc1Cl)CCC3` : provide nuclei count
result: 56.6

query: Item `CSc1cccc(NS(=O)(=O)c2ccccc2)c1` : provide nuclei count
result: 99.5

Continuing:
query: Item COc1cc(C2N3CC4(C)CN2CC(C)(C3)C4)ccc1O (configuration not stated) : provide nuclei count
result: 74.7

query: Item `O=C(CCCCCN1C(=O)CCC1=O)NCc1ccccc1` : provide nuclei count
result: 106

query: Item `COc1ccc(C(=O)N2CCSC2=S)cc1OC` : provide nuclei count
result: 97.5

query: Item OC(CN1CCN(c2ccccn2)CC1)Cn1c2ccccc2c2ccccc21 (configuration not stated) : provide nuclei count
result: 104

* * *

# METHOD DESCRIPTION: inhibitors of TNFa-induced NFkB p65 translocation, primary screen, imaging, HUVEC, MLSMR starter and 10KST1 sets (AID 438);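 further: compound added about 3h40 before a 20 min TNFalpha stimulation; signal is the nuclear over cytoplasmic p65 intensity ratio per well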
# TEST CONTEXT: HUVEC TNFa-induced p65 nuclear translocation; at 2 µM, stronger effect = higher value, 0% TNFa-plus-vehicle, 100% no-TNFa wells
ASSAY METRIC: inhibition (%)
Quick reminder: number only, in %, skip the unit.

Before answering, review these 2 worked examples.
query: Item `CCCCOC(=O)Cn1c(=O)oc2ccc(C)cc21` : provide inhibition
result: -5.8

query: Item `Cc1ccc(C)c(NS(=O)(=O)c2ccc(NC(=O)c3ccco3)cc2)c1` : provide inhibition
result: 13.3

Continuing:
query: Item `COc1ccccc1OCCCCNCCO` : provide inhibition
result: 9.1

query: Item Cc1cccc(C2CC(c3ccc(Cl)cc3)Nc3nc(N)nn32)c1 (centres undefined) : provide inhibition
result: -2.4

query: Item `COCCCn1nnnc1SCC(=O)Nc1nc(C)c(C)s1` : provide inhibition
result: -5.5

query: Item `Cc1nc2ccc(Br)cn2c1NC(C)(C)C` : provide inhibition
result: 12.8

* * *

Let's look at some compounds and their measured nuclei count.
# METHOD DESCRIPTION: reduction of polyQ htt aggregates in cells – imaging, exon1htt(103Q)mCFP cells, high-content imaging, primary screen (AID 483);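 further: compound exposure lasted 3 days before fixation; percent of the per-plate median nuclei count of sample wells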
# TEST CONTEXT: exon1htt(103Q)mCFP cell line, aggregate imaging, at 2 µM; measured here: cell count, toxicity
Quick reminder: number only, in %, skip the unit.

Before answering, review these 8 worked examples.
query: Item `CC(C)Cc1cc(C(=O)Nc2c(F)cc(F)cc2Br)no1` : provide nuclei count
result: 114

query: Item `CC(=O)Nc1ccc(OC(=O)c2cccs2)cc1` : provide nuclei count
result: 107

query: Item CC1(C)CC(=O)C2=C(C1)NC(=O)CC2c1ccc(N(CCC#N)CCC#N)cc1 (configuration not stated) : provide nuclei count
result: 109

query: Item `CCCCSc1nc2c(cnn2-c2ccc(F)cc2)c(=O)[nH]1` : provide nuclei count
result: 81.3

query: Item `CCCN(CCC)C(=O)c1c(C)[nH]c(C(=O)OCC)c1C` : provide nuclei count
result: 109

query: Item `COc1ccc(-c2noc(COc3ccc(C)c(C)c3)n2)cc1OC` : provide nuclei count
result: 97.9

query: Item `Cc1ccc(NC(=O)c2ccco2)cc1NC(=O)CSc1nnc(-c2cccs2)n1C` : provide nuclei count
result: 89.1

query: Item C/C(=C\c1ccco1)C1C(C#N)=C(N)OC2=C1C(=O)CC(C)(C)C2 (configuration not stated) : provide nuclei count
result: 96.3

Continuing:
query: Item `CCOC(=O)c1sc2nc(NC(=O)C(C)(C)C)sc2c1C` : provide nuclei count
result: 112

query: Item `COc1ccc(C(N)=O)cc1N` : provide nuclei count
result: 98.3

query: Item `Cc1cccc(NC(=O)c2ccccc2O)c1C` : provide nuclei count
result: 98.2

query: Item `CCOc1ccc(NC(=O)CSc2nccn2C)cc1` : provide nuclei count
result: 106
